Data provenance: ChEMBL document CHEMBL3885861

- Species on record: Rattus norvegicus
- test-method-notes: Open TG-GATES - Regimen: Single
- Assay type: toxicity, organism-based, Sprague-Dawley
- Design: regimen Single, gender Male, age 6 weeks
- conditions: in vivo, po, 0 mg/kg, 6 h, tissue Plasma, route gavage, dose level Control
reported-property: CRE (mg/dL)
State the answer as a number, implicitly in mg/dL.

Here's what some known entries look like.
[
  {
    "compound": "Nc1nc(N)c2nc(-c3ccccc3)c(N)nc2n1",
    "reported-property": "CRE",
    "readout-number": 0.2
  },
  {
    "compound": "Oc1ncnc2[nH]ncc12",
    "reported-property": "CRE",
    "readout-number": 0.4
  }
]

Continue with the next compound.
Exercise: Given the compound CC(C)(S)[C@@H](N)C(=O)O , what is its reported CRE?
Solution: 0.2
